Task for the reader: assign each of the following compounds its reported Efficacy.
# System: wild-type ZIKV (Ugandan MR766 strain) in Vero cells
# assay.info: ZIKV cytopathic effect (CPE) inhibition qHTS assay, CellTiter-Glo readout
# Format: cell-based, Zika virus
Numbers only.

Consider the following items and state reported Efficacy for each.
1. CC(=O)O[C@@]1(C)C[C@@H](O)[C@]2(O)C=CO[C@@H](O[C@@H]3O[C@H](CO)[C@@H](O)[C@H](O)[C@H]3O)[C@@H]21
2. COc1c(Cl)cc2c([nH]c3cnccc32)c1NC(=O)c1cccnc1C
3. Nc1ccn([C@@H]2O[C@H](CO)[C@@H](O)C2(F)F)c(=O)n1 [NCGC00168784-08, gemcitabine, reference compound]
4. C=Cc1cc2oc(-c3ccc(O)c(F)c3)nc2cc1O
5. C=C(C)[C@@H]1CC=C(COC(=O)NC(=O)c2ncn3c(=O)n(C)nnc23)CC1
6. CC1(C)CC[C@]2(C(=O)O)CC[C@]3(C)C(=CCC4[C@@]5(C)CCC(O[C@@H]6OC[C@H](O)[C@H](O)[C@H]6O[C@@H]6O[C@H](CO)[C@@H](O)[C@H](O)[C@H]6O)[C@@](C)(CO)C5CC[C@]43C)[C@@H]2C1 (stereo partly drawn)

-81.683
-34.501
-24.938
-24.649
-41.908
-61.863

###

# System: wild-type ZIKV (Ugandan MR766 strain) in Vero cells
# assay.info: ZIKV cytopathic effect (CPE) inhibition qHTS assay, CellTiter-Glo readout
# Format: cell-based, Zika virus
# test.context: Zika virus, Vero, read-out: Log AC50 (M) (converted)
*1 amine or outer side, *2 acyl side, *3 side chain or, on linkers, in order; H or OH if unused. Where a SMILES comes first, the peptide text is derived from it. Bridges are numbered along the chain shown (N, C = ends). [ ]: non-standard residue; d: D form. The star is where a group is joined. ξ: configuration not given here. pTerphenylCO(4''-OnC5H11) = CCCCCOc1ccc(-c2ccc(-c3ccc(C(=O)*)cc3)cc2)cc1; Orn(4R-OH,5R-OH) = O=C([C@H](C[C@@H](O)[C@@H](O)N[*:3])N[*:1])[*:2]; hTyr(3S-OH,4S-OH) = N[C@H](C(=O)O)[C@H](O)[C@@H](O)c1ccc(O)cc1; X2 = CCC(C)(N*)C(=O)C1CC[C@@H](C(=O)N[CH]Cc2ccccc2)N1; Pro(3S-OH,4S-Me) = C[C@H]1CN[C@H](C(=O)O)[C@H]1O; X1 = O=C([C@@H]1CC(O)CN1[*:1])[*:2]; Hyp = O=C(O)[C@@H]1C[C@@H](O)CN1; aIle = CC[C@@H](C)[C@H](N)C(=O)O; Thr(3ξ) = CC(O)[C@H](N)C(=O)O; ξIva = CCC(C)(N)C(=O)O; Aib = CC(C)(N)C(=O)O
property.measured: AC50 (M)
One number for each entry, in M.

Below, 4 compounds whose answers are already recorded.
compound	property.measured	numeric.readout
CC1(C)CC[C@]2(C(=O)O)CC[C@]3(C)C(=CCC4[C@@]5(C)CCC(O[C@@H]6OC[C@H](O)[C@H](O)[C@H]6O[C@@H]6O[C@H](CO)[C@@H](O)[C@H](O)[C@H]6O)[C@@](C)(CO)C5CC[C@]43C)[C@@H]2C1 (some centres unmarked)	AC50	2.43e-07
C=C(C)C1=C[C@@]2(C)C(=CC1=O)CC[C@@H](O)[C@@H]2C	AC50	1.46e-05
Nc1cccc(CNC(=O)c2ccc(Oc3ccc(OCc4cccc(F)c4)cc3)nc2)c1	AC50	7.31e-05
Cc1cc(OCCC[S+](C)(=O)[O-])cc(C)c1-c1cccc(COc2ccc3c(c2)OCC3CC(=O)O)c1 (centres unmarked)	AC50	2.31e-05

Provide the reported AC50 of each entry below, same order.
1. CCN(CC)C(=O)c1ccc(Nc2nc(OCC3CCCCC3)c3nc[nH]c3n2)cc1
2. CCN(CC)C(=O)Nc1ccc(OCC(O)CNC(C)(C)C)c(C(C)=O)c1 (centres unmarked)
3. Cc1[nH]c2ccccc2c1C1=C(NCCc2ccc(F)cc2)C(=O)N(C)C1=O
4. CC(=O)OCC1OC(O[C@H]2CC[C@@]3(C)C(CC[C@]4(C)C3CC=C3[C@@H]5CC(C)(C)CC[C@]5(C(=O)O)CC[C@]34C)[C@]2(C)CO)C(O)C(O)C1OC1OC(C)C(O)C(OC2OCC(O)C(O)C2O)C1O (some centres unmarked)
5. Nc1c([S+](=O)([O-])c2ccccc2)c2nc3ccccc3nc2n1-c1ccc(F)cc1
6. COc1ccc2c(c1)C=C1Cn3c-2c(C2CCCCC2)c2ccc(cc23)C(=O)N[S+](=O)([O-])N(C)CCOCCN(C)C1=O
7. C=C(C)C1CCC(C)C12CC(O)C1(C)OC1C2OC(=O)C(N)CCC(=O)O (centres unmarked)
8. CC1(C)CC[C@]2(C(=O)O)CC[C@]3(C)C(=CC[C@@H]4[C@@]5(C)CC[C@H](O[C@@H]6O[C@H](C(=O)O)[C@@H](O)[C@H](O)[C@H]6O)C(C)(C)[C@@H]5CC[C@]43C)[C@@H]2C1 [NCGC00384528-01, Calenduloside E]

1: 4.61e-05; 2: 3.26e-05; 3: 2.06e-05; 4: 7.78e-06; 5: 7.31e-05; 6: 2.59e-05; 7: 2.02e-05; 8: 1.37e-05

Lab note: each compound below needs its AC50 filled in.
1. CC1CCC2(C(=O)OC3OC(CO)C(O)C(O)C3O)CCC3(C)C(=CCC4C5(C)CCC(O)C(C)(CO)C5CCC43C)C2C1(C)O (centres unmarked)
2. Cc1cc(C)c2nc(-c3ccccn3)cc(C(=O)Nc3ccc([S+](=O)([O-])Nc4onc(C)c4C)cc3)c2c1

1. 6.11e-06
2. 3.26e-05

Report AC50 for every entry below.
1. C=CC/C=C\C/C=C\CCCCCCCc1cc(O)cc(O)c1
2. C=C1CCC2[C@](C)(CCC[C@]2(C)C(=O)O)[C@H]1CC/C(C)=C/C(=O)OC (some centres unmarked)

1. 4.53e-05
2. 4.04e-07

Would you be so kind as to report AC50 for each listed record?
1. CCCCCOc1ccc(-c2ccc(-c3ccc(C(=O)N[C@H]4C[C@@H](O)[C@@H](O)NC(=O)[C@@H]5[C@@H](O)[C@@H](C)CN5C(=O)[C@H]([C@@H](C)O)NC(=O)[C@H]([C@H](O)[C@@H](O)c5ccc(O)cc5)NC(=O)[C@@H]5C[C@@H](O)CN5C(=O)[C@H]([C@@H](C)O)NC4=O)cc3)cc2)cc1 [NCGC00386349-01] ({pTerphenylCO(4''-OnC5H11)}-[Orn(4R-OH,5R-OH)]T[Hyp][hTyr(3S-OH,4S-OH)]T[Pro(3S-OH,4S-Me)]; lactam 1-C)
2. COc1ccc2c(OC)c3ccoc3nc2c1OC

1: 1.26e-05; 2: 1.84e-05

Batch request: AC50 for each of the following compounds.
1. CC(=O)O[C@@H]1C[C@]2(C)[C@@]3(CCC4[C@@]5(C)CC[C@H](O[C@@H]6O[C@H](C(=O)O)[C@@H](O)[C@H](OC7OC(CO)C(O)C(O)[C@H]7O[C@@H]7O[C@@H](C)[C@H](O)[C@@H](O)[C@H]7O[C@@H]7OC[C@](O)(CO)[C@H]7O)[C@H]6OC6OC(CO)C(O)C(O)C6O)C(C)(C)C5CC[C@]42C)OC[C@@]12CCC(C)(C)CC23 (some centres unmarked)
2. CC[C@@H](C)[C@H](NC(=O)C(C)(C)NC(=O)[C@H](CCC(N)=O)NC(=O)C(C)(CC)NC(=O)[C@H](Cc1c[nH]c2ccccc12)NC(C)=O)C(=O)N[C@H](C(=O)NC(C)(C)C(=O)N[C@@H](CC(C)C)C(=O)NC(C)(C)C(=O)N1CCC[C@H]1C(=O)N[C@@H](CCC(N)=O)C(=O)NC(C)(C)C(=O)N1CC(O)C[C@H]1C(=O)NC(C)(CC)C(=O)C1CC[C@@H](C(=O)N[CH]Cc2ccccc2)N1)C(C)O (some centres unmarked) [NCGC00385349-01] (Ac-W[ξIva]Q[Aib][aIle][Thr(3ξ)][Aib]L[Aib]PQ[Aib][X1]-X2)

2.75e-06
1e-05
